assay: Phototoxicity against human MDA-MB-231 cells preincubated for 2 hrs followed by light irradiation of 20 mW.cm/2 at 400 at 700nm for 24 hrs by CCK-8 method; type: functional, cell-based; conditions: MDA-MB-231, light or radiation study
Experimental endpoint: IC50 (nM)
Entry rule: numbers only, all in nM.

Q: Consider the molecule `O=c1cc2sc3cc(N4CCNCC4)ccc3nc-2c2ccccc12` and give its measured IC50.
A: 164

* * *

test system: MDA-MB-231; experiment: Photocytotoxicity in human MDA-MB-231 cells assessed as cell viablity incubated for 24 hrs under light irradiation of 50 mW.cm/2 at 400 to 700nm measured after 10 mins in normoxia condition by CCK-8 method; format: functional, cell-based; conditions: MDA-MB-231, light or radiation study
Experimental endpoint: IC50 (nM)
Entry rule: numbers only, all in nM.

Q: Consider the molecule `O=c1cc2sc3cc(N4CCNCC4)ccc3nc-2c2ccccc12` and give its measured IC50.
A: 356
